Data credit: patent US20190119298A1

# System: Setaria viridis
# assay-notes: Pre-emergence herbicidal effect
# Type: in vivo
# condition-details: 320 g/ha, scored visually after 3 weeks vs untreated controls, 100% = plants have died
measurement-kind: Pre-emergence action SETVI (herbicidal activity in percent) (%)
Field: numeric (%). Do not append units.

Examples with their reported Pre-emergence action SETVI (herbicidal activity in percent) follow.
compound	numeric-readout
CCc1cccc(C)c1C1=C(OC(=O)C(C)(C)C)C2CCOCCN2C1=O (stereo not drawn)	100
CCc1cc(C)cc(C)c1C1=C(OC(=O)OC)C2CCOCCN2C1=O (stereo not drawn)	100

Could you now look at the following compound, please?
Entry under review: CCOC(=O)OC1=C(c2c(C)cccc2CC)C(=O)N2CCOCCC12 (stereo not drawn) . Reported Pre-emergence action SETVI (herbicidal activity in percent)?
100

----------
# Test system: Echinochloa crus-galli
# assay-notes: Post-emergence herbicidal effect
# Assay type: in vivo
# condition-details: one-leaf stage, 320 g/ha, assessed visually after about 3 weeks, 100% = plants have died
measurement-kind: Post-emergence effectiveness ECHCG (herbicidal action in percent)
Remember to follow the number with its unit.

These recorded examples may help you get a feel for the data.
molecule	result
CCc1cc(C)cc(CC)c1C1=C(OC(=O)OC)C2CCOCCN2C1=O (centres unmarked)	100%
COC(=O)OC1=C(c2c(C)cc(C)cc2C)C(=O)N2CCCOCC12 (centres unmarked)	90%
CC(=O)OC1=C(c2c(C)cc(C)cc2C)C(=O)N2CCCOCC12 (centres unmarked)	100%
CCc1cc(C)cc(C)c1C1=C(O)C2=CCOCCN2C1=O	100%
CCc1cc(C)cc(C)c1C1=C(OC(=O)OC)C2CCOCCN2C1=O (centres unmarked)	100%
CCc1cc(C)cc(CC)c1C1=C(OC(=O)C(C)(C)C)C2CCOCCN2C1=O (centres unmarked)	100%
CCc1cccc(C)c1C1=C(OC(=O)C(C)(C)C)C2CCOCCN2C1=O (centres unmarked)	100%
CCOC(=O)OC1=C(c2c(CC)cc(Cl)cc2OC)C(=O)N2CCOCCC12 (centres unmarked)	100%

// lookup Post-emergence effectiveness ECHCG (herbicidal action in percent) for CCc1cc(C)cc(CC)c1C1=C(O)C2CCOCCN2C1=O (centres unmarked)
100%

Name the reported Post-emergence effectiveness ECHCG (herbicidal action in percent) value associated with the molecule Cc1cc(C)c(C2=C(O)C3COCCCN3C2=O)c(C)c1 (racemic)
100%

Quick one: Post-emergence effectiveness ECHCG (herbicidal action in percent) of CCOC(=O)OC1=C(c2c(C)cc(C)cc2C)C(=O)N2CCCOCC12 (centres unmarked) ?
90%

----------
# Test system: Avena fatua
# assay-notes: Post-emergence herbicidal effect
# Type: in vivo
# condition-details: one-leaf stage, 320 g/ha, assessed visually after about 3 weeks, 100% = plants have died
measurement-kind: Post-emergence effectiveness AVEFA (herbicidal action in percent) (%)
Express it in %; write the number only.

compound	numeric-readout
Cc1cc(C)c(C2=C(O)C3COCCCN3C2=O)c(C)c1 (racemic) [Ia-2-1]	100

I would be grateful if you could share the reported Post-emergence effectiveness AVEFA (herbicidal action in percent) for CCc1cc(C)cc(C)c1C1=C(OC(=O)OC)C2CCOCCN2C1=O (stereo not shown) [Ib-1-6] .
100

Can you look up the measured Post-emergence effectiveness AVEFA (herbicidal action in percent) of CCc1cc(Cl)cc(OC)c1C1=C(O)C2=CCOCCN2C1=O [Ia-3-4] for me?
100

Entry CCc1cc(C)cc(CC)c1C1=C(OC(=O)OC)C2CCOCCN2C1=O (stereo not shown) [Example Ib-1-1] has what Post-emergence effectiveness AVEFA (herbicidal action in percent)?
100
